# System: Escherichia coli TOP10
# Protocol Notes: shrunken log2 fold change of peptide-encoding DNA abundance (4.5 h post-induction vs induction); higher = less antimicrobial activity (less host growth inhibition)
# Conditions Used: time post-induction: 4.5 h; library: site-saturation at positions 5, 18, 19, 20
Readout Type: shrunken log2 fold change

See these solved cases before continuing.
RRIRHRPPRLPRPRPRPFGFPRP | -0.0586
RRIRSRPPRLPRPRPRPWVDPRP | -0.0314
RRIRSRPPRLPRPRPRPSMFPRP | -0.18
RRIRNRPPRLPRPRPRPLKPPRP | 0.203
RRIRQRPPRLPRPRPRPGSFPRP | -0.0531

Value of measured shrunken log2 fold change for the entry RRIRVRPPRLPRPRPRPPKTPRP : 0.152

Measured shrunken log2 fold change, RRIRNRPPRLPRPRPRPPHKPRP : -0.136

response.value for RRIRLRPPRLPRPRPRPTSCPRP (field: shrunken log2 fold change) = 0.0575

Please fill in: shrunken log2 fold change reported for RRIRERPPRLPRPRPRPGIDPRP = -0.14

Consider RRIRFRPPRLPRPRPRPTPYPRP . Its measured shrunken log2 fold change is 0.0647

// sample RRIRRRPPRLPRPRPRPEIIPRP , its shrunken log2 fold change was 0.0119

shrunken log2 fold change reported for this sequence RRIRFRPPRLPRPRPRPTHKPRP : -0.0458

Note to self: shrunken log2 fold change recorded for RRIRYRPPRLPRPRPRPKKLPRP was -0.647

Record RRIRPRPPRLPRPRPRPLDVPRP , field shrunken log2 fold change: -0.146

---

Each record here notes measured shrunken log2 fold change.
# System: Escherichia coli TOP10
# Protocol Notes: shrunken log2 fold change of peptide-encoding DNA abundance (4.5 h post-induction vs induction); higher = less antimicrobial activity (less host growth inhibition)
# Conditions Used: time post-induction: 4.5 h; library: site-saturation at positions 5, 18, 19, 20
Give only the figure.

Solved cases (5 shown):
RRIRERPPRLPRPRPRPWFQPRP | -0.0883
RRIRLRPPRLPRPRPRPKWEPRP | -0.00197
RRIRERPPRLPRPRPRPGKVPRP | 0.206
RRIRMRPPRLPRPRPRPEAEPRP | 2.18
RRIRVRPPRLPRPRPRPISDPRP | -0.0883

Record RRIRTRPPRLPRPRPRPGPAPRP . Reported shrunken log2 fold change: 0.35

Reported shrunken log2 fold change for RRIRARPPRLPRPRPRPACVPRP was 0.707

sequence RRIRHRPPRLPRPRPRPWHSPRP , shrunken log2 fold change observed: -0.22

So, RRIRLRPPRLPRPRPRPAWFPRP ? Its shrunken log2 fold change was 0.103

What the record says about RRIRCRPPRLPRPRPRPHGGPRP : shrunken log2 fold change is -0.154

// shrunken log2 fold change lookup, sequence = RRIRRRPPRLPRPRPRPTYPPRP , result: 0.0623

Sample RRIRARPPRLPRPRPRPRWCPRP ; shrunken log2 fold change observed: 0.0438

Query RRIRRRPPRLPRPRPRPHSRPRP yields shrunken log2 fold change of 0.163

---

# Test system: Escherichia coli TOP10
# Protocol Notes: shrunken log2 fold change of peptide-encoding DNA abundance (4.5 h post-induction vs induction); higher = less antimicrobial activity (less host growth inhibition)
# Conditions Used: time post-induction: 4.5 h; library: site-saturation at positions 5, 18, 19, 20
Each entry below lists one item and its recorded shrunken log2 fold change value.
In your answer, state the number alone without any accompanying words.

Sample records with shrunken log2 fold change:
RRIRCRPPRLPRPRPRPCPCPRP | -1.35
RRIRIRPPRLPRPRPRPCPAPRP | -0.247
RRIRMRPPRLPRPRPRPARTPRP | 1.53

Switching to the query record.
Measured shrunken log2 fold change of RRIRPRPPRLPRPRPRPLTVPRP : -0.126

---

# Test system: Escherichia coli TOP10
# Protocol Notes: shrunken log2 fold change of peptide-encoding DNA abundance (4.5 h post-induction vs induction); higher = less antimicrobial activity (less host growth inhibition)
# Conditions Used: time post-induction: 4.5 h; library: site-saturation at positions 5, 18, 19, 20
Entries and their measured shrunken log2 fold change follow.
Could you respond with only the numeric value?

RRIRNRPPRLPRPRPRPETWPRP | 0.0309
RRIRFRPPRLPRPRPRPHDFPRP | -0.199
RRIRRRPPRLPRPRPRPLASPRP | 0.382

# shrunken log2 fold change (sequence: RRIRPRPPRLPRPRPRPNCNPRP ) is -0.518

The sequence identified as RRIRQRPPRLPRPRPRPTSIPRP registered its shrunken log2 fold change at -0.18

For RRIRCRPPRLPRPRPRPNWAPRP the sequence record lists shrunken log2 fold change as -0.336

---

# Tested on: Escherichia coli TOP10
# Protocol Notes: shrunken log2 fold change of peptide-encoding DNA abundance (4.5 h post-induction vs induction); higher = less antimicrobial activity (less host growth inhibition)
# Conditions Used: time post-induction: 4.5 h; library: site-saturation at positions 5, 18, 19, 20
Kind request: treat 0.1 as inclusive, so shrunken log2 fold change at 0.1 or higher is Fulfilled, anything lower is Not fulfilled.

Answered examples (8):
RRIRKRPPRLPRPRPRPMDDPRP | Fulfilled
RRIRHRPPRLPRPRPRPSWKPRP | Not fulfilled
RRIRSRPPRLPRPRPRPGWWPRP | Fulfilled
RRIRARPPRLPRPRPRPVSEPRP | Fulfilled
RRIRRRPPRLPRPRPRPSKKPRP | Fulfilled
RRIRRRPPRLPRPRPRPKCDPRP | Not fulfilled
RRIRARPPRLPRPRPRPVMDPRP | Fulfilled
RRIRCRPPRLPRPRPRPRKRPRP | Fulfilled

Query string: Reported shrunken log2 fold change at or above 0.1? RRIRPRPPRLPRPRPRPLWCPRP
Result string: Not fulfilled

Query string: Assess whether reported shrunken log2 fold change for RRIRPRPPRLPRPRPRPWSHPRP sits at 0.1 or higher.
Result string: Not fulfilled

Query string: Is the recorded value of shrunken log2 fold change equal to or greater than 0.1 for this sequence? RRIRARPPRLPRPRPRPVWHPRP
Result string: Fulfilled

---

# Test system: Escherichia coli TOP10
# Protocol Notes: shrunken log2 fold change of peptide-encoding DNA abundance (4.5 h post-induction vs induction); higher = less antimicrobial activity (less host growth inhibition)
# Conditions Used: time post-induction: 4.5 h; library: site-saturation at positions 5, 18, 19, 20
Readout Type: shrunken log2 fold change
Lab note: record just the number, no unit beside it.

The sequence listed as RRIRARPPRLPRPRPRPECTPRP has a reported shrunken log2 fold change of 1.05

Sure, the documented shrunken log2 fold change for RRIRRRPPRLPRPRPRPKGIPRP is 0.268

The sequence listed as RRIRTRPPRLPRPRPRPKGYPRP has a reported shrunken log2 fold change of -0.0992

The measured shrunken log2 fold change associated with RRIRGRPPRLPRPRPRPYRDPRP reads 0.528

So for RRIRFRPPRLPRPRPRPVDSPRP , the logged shrunken log2 fold change turned out to be 0.0218

GET /value?item= RRIRRRPPRLPRPRPRPYVQPRP &field=shrunken log2 fold change returns 0.0531

Noted for RRIRARPPRLPRPRPRPFQWPRP : its shrunken log2 fold change reads -0.0629

Entry RRIRCRPPRLPRPRPRPSPVPRP ; shrunken log2 fold change = 0.00196

Notebook: RRIRGRPPRLPRPRPRPKWMPRP , shrunken log2 fold change read as 0.58

# sequence RRIRQRPPRLPRPRPRPWAPPRP ; its shrunken log2 fold change = 0.0985

Quick note, shrunken log2 fold change for RRIRCRPPRLPRPRPRPLYQPRP landed at -0.543

---

# Tested on: Escherichia coli TOP10
# Protocol Notes: shrunken log2 fold change of peptide-encoding DNA abundance (4.5 h post-induction vs induction); higher = less antimicrobial activity (less host growth inhibition)
# Conditions Used: time post-induction: 4.5 h; library: site-saturation at positions 5, 18, 19, 20
Give yes (1) when the value for shrunken log2 fold change is at least -0.03. Give no (0) when it is less.

RRIRFRPPRLPRPRPRPFREPRP | no (0)
RRIRRRPPRLPRPRPRPFYYPRP | no (0)
RRIRARPPRLPRPRPRPVQPPRP | yes (1)
RRIRYRPPRLPRPRPRPPGNPRP | no (0)
RRIRFRPPRLPRPRPRPGNKPRP | no (0)

Now consider a different sequence.
Query string: Does the sequence RRIRTRPPRLPRPRPRPGVAPRP have recorded shrunken log2 fold change that is -0.03 or more?
Result string: yes (1)

---

# System: Escherichia coli TOP10;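 also: peptides expressed intracellularly from a pBAD plasmid library in pooled LB shake-flask culture, induced with 0.3% L-arabinose, DNA abundance read by NGS, three biological replicates, DESeq2 with apeglm shrinkage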
# Protocol Notes: shrunken log2 fold change of peptide-encoding DNA abundance (4.5 h post-induction vs induction); higher = less antimicrobial activity (less host growth inhibition)
# Conditions Used: time post-induction: 4.5 h; library: site-saturation at positions 5, 18, 19, 20
Readout Type: shrunken log2 fold change
I only need the number, thanks.

Worked set:
RRIRNRPPRLPRPRPRPIVGPRP | 0.003
RRIRHRPPRLPRPRPRPKIHPRP | -0.393
RRIRMRPPRLPRPRPRPCNVPRP | 0.0415
RRIRIRPPRLPRPRPRPSITPRP | 0.141
RRIRPRPPRLPRPRPRPYPRPRP | 0.0824

# shrunken log2 fold change (sequence: RRIRMRPPRLPRPRPRPDEDPRP ) is -0.0149

Recorded shrunken log2 fold change (sequence RRIRVRPPRLPRPRPRPYRPPRP ): -0.462

Short answer for RRIRFRPPRLPRPRPRPAWKPRP : shrunken log2 fold change was -0.284

Sample RRIRMRPPRLPRPRPRPWEMPRP ; shrunken log2 fold change observed: -0.0802

In plain terms, RRIRERPPRLPRPRPRPDNCPRP has a documented shrunken log2 fold change of -0.0268

shrunken log2 fold change reported for this sequence RRIRDRPPRLPRPRPRPWCAPRP : -0.0367

So for RRIRTRPPRLPRPRPRPDKWPRP , the logged shrunken log2 fold change turned out to be 0.0238

Measured shrunken log2 fold change of RRIRERPPRLPRPRPRPMTHPRP : -0.0346
